test system: TRPM5-expressing HEK-293 cells (TRPM5-293); test: FLIPR membrane potential assay in TRPM5-293 cells; type: cell-based, human; conditions: Homo sapiens, HEK293, read-out: EC50 (tested concentration closest to it)
pEC50: −log10 of the molar value.
VALUE_KIND: pEC50

> print(dat)
                                 molecule  value.kind  result.value
1  C=CCN=C=S [AITC, allyl isothiocyanate]       pEC50         ~5.52
